Reported relative viability values follow for various molecules
system: NCI-H2085; experiment: relative viability (nuclei count vs DMSO), 5 days (fraction); higher = more cells survive; conditions: first compound 0.2 µM
Answer with a number only.

Molecule | Target or system | Readout type | Value reported
CN1CCN(CCOc2cc(OC3CCOCC3)c3c(Nc4c(Cl)ccc5c4OCO5)ncnc3c2)CC1 [Saracatinib] + CC1(C)CCC(c2ccc(Cl)cc2)=C(CN2CCN(c3ccc(C(=O)NS(=O)(=O)c4ccc(N[C@H](CCN5CCOCC5)CSc5ccccc5)c(S(=O)(=O)C(F)(F)F)c4)cc3)CC2)C1 [Navitoclax] (partner 0.5 µM) | NCI-H2085 | relative viability | 1.05

Now for the molecule whose relative viability we want.
Give recorded relative viability. Cc1csc(=NC2CCCCC2)n1/N=C/c1ccc(O)c(O)c1O [MIM1] + Cc1nc(Nc2ncc(C(=O)Nc3c(C)cccc3Cl)s2)cc(N2CCN(CCO)CC2)n1 [Dasatinib] (partner 0.075 µM)
0.323

====

test system: HCC-827; test: relative viability (nuclei count vs DMSO), 5 days (fraction); higher = more cells survive; settings: first compound 2.53 µM
Reported relative viability values follow for various compounds
Answer with a number only.

Compound | relative viability
Nc1cccc2c1CN(C1CCC(=O)NC1=O)C2=O (stereo not given) [Lenalidomide] + Cc1nc(NC(=O)N2CCC[C@H]2C(N)=O)sc1-c1ccnc(C(C)(C)C(F)(F)F)c1 [Alpelisib] (partner 2 µM) | 0.96
Nc1cccc2c1CN(C1CCC(=O)NC1=O)C2=O (stereo not given) [Lenalidomide] + CC(=O)Nc1cccc(-n2c(=O)n(C3CC3)c(=O)c3c(Nc4ccc(I)cc4F)n(C)c(=O)c(C)c32)c1 [Trametinib] (partner 0.02 µM) | 0.518
Nc1cccc2c1CN(C1CCC(=O)NC1=O)C2=O (stereo not given) [Lenalidomide] + CS(=O)(=O)N1CCN(Cc2cc3nc(-c4cccc5[nH]ncc45)nc(N4CCOCC4)c3s2)CC1 [Pictilisib] (partner 1 µM) | 0.925
Nc1cccc2c1CN(C1CCC(=O)NC1=O)C2=O (stereo not given) [Lenalidomide] + Cc1cc(Nc2cc(N3CCN(C)CC3)nc(Sc3ccc(NC(=O)C4CC4)cc3)n2)n[nH]1 [Tozasertib] (partner 0.1 µM) | 0.455

Give recorded relative viability. Nc1cccc2c1CN(C1CCC(=O)NC1=O)C2=O (stereo not given) [Lenalidomide] + CC1(C)CCC(c2ccc(Cl)cc2)=C(CN2CCN(c3ccc(C(=O)NS(=O)(=O)c4ccc(N[C@H](CCN5CCOCC5)CSc5ccccc5)c(S(=O)(=O)C(F)(F)F)c4)cc3)CC2)C1 [Navitoclax] (partner 0.5 µM)
1.01

====

Reported relative viability values follow for various molecules
system: COR-L 105; test: relative viability (nuclei count vs DMSO), 5 days (fraction); higher = more cells survive; details: first compound 2 µM
Answer with a number only.

Molecule | Readout type | Value reported
CN1CCN(CCOc2cc(OC3CCOCC3)c3c(Nc4c(Cl)ccc5c4OCO5)ncnc3c2)CC1 [Saracatinib] + CS(=O)(=O)N1CCN(Cc2cc3nc(-c4cccc5[nH]ncc45)nc(N4CCOCC4)c3s2)CC1 [Pictilisib] (partner 1 µM) | relative viability | 0.244
Cc1csc(=NC2CCCCC2)n1/N=C/c1ccc(O)c(O)c1O [MIM1] + Cc1nc(NC(=O)N2CCC[C@H]2C(N)=O)sc1-c1ccnc(C(C)(C)C(F)(F)F)c1 [Alpelisib] (partner 2 µM) | relative viability | 0.849
Cc1csc(=NC2CCCCC2)n1/N=C/c1ccc(O)c(O)c1O [MIM1] + O=C(CCCCCCC(=O)Nc1ccccc1)NO [Vorinostat] (partner 1 µM) | relative viability | 0.774

Give recorded relative viability. CN1CCN(CCOc2cc(OC3CCOCC3)c3c(Nc4c(Cl)ccc5c4OCO5)ncnc3c2)CC1 [Saracatinib] + Cc1cc(Nc2cc(N3CCN(C)CC3)nc(Sc3ccc(NC(=O)C4CC4)cc3)n2)n[nH]1 [Tozasertib] (partner 0.1 µM)
0.282

Give recorded relative viability. CN1CCN(CCOc2cc(OC3CCOCC3)c3c(Nc4c(Cl)ccc5c4OCO5)ncnc3c2)CC1 [Saracatinib] + COc1cccc2cc(-c3nc([C@H]4CC[C@H](C(=O)O)CC4)n4ncnc(N)c34)[nH]c12 [OSI-027] (partner 0.5 µM)
0.221

Give recorded relative viability. CN1CCN(CCOc2cc(OC3CCOCC3)c3c(Nc4c(Cl)ccc5c4OCO5)ncnc3c2)CC1 [Saracatinib] + CC(=O)Nc1cccc(-n2c(=O)n(C3CC3)c(=O)c3c(Nc4ccc(I)cc4F)n(C)c(=O)c(C)c32)c1 [Trametinib] (partner 0.02 µM)
0.317

Give recorded relative viability. Cc1csc(=NC2CCCCC2)n1/N=C/c1ccc(O)c(O)c1O [MIM1] + CS(=O)(=O)CCNCc1ccc(-c2ccc3ncnc(Nc4ccc(OCc5cccc(F)c5)c(Cl)c4)c3c2)o1 [Lapatinib] (partner 2 µM)
0.373

Give recorded relative viability. Cc1csc(=NC2CCCCC2)n1/N=C/c1ccc(O)c(O)c1O [MIM1] + Cc1nc(Nc2ncc(C(=O)Nc3c(C)cccc3Cl)s2)cc(N2CCN(CCO)CC2)n1 [Dasatinib] (partner 0.075 µM)
0.339

Give recorded relative viability. CN1CCN(CCOc2cc(OC3CCOCC3)c3c(Nc4c(Cl)ccc5c4OCO5)ncnc3c2)CC1 [Saracatinib] + CCNC(=O)c1noc(-c2cc(C(C)C)c(O)cc2O)c1-c1ccc(CN2CCOCC2)cc1 [Luminespib] (partner 0.01 µM)
0.467
